Listing of entries alongside the reported pIC50.
biological target: Serine/threonine-protein kinase ATR (Homo sapiens); experiment: Inhibition of ATR in human HT29 cells assessed as reduction in Chk1 phosphorylation at Ser345 residues after 4 hrs by Alexa Fluor 488 staining based fluorescence assay; assay type: cell-based
Sequence (Q13535 whole entry): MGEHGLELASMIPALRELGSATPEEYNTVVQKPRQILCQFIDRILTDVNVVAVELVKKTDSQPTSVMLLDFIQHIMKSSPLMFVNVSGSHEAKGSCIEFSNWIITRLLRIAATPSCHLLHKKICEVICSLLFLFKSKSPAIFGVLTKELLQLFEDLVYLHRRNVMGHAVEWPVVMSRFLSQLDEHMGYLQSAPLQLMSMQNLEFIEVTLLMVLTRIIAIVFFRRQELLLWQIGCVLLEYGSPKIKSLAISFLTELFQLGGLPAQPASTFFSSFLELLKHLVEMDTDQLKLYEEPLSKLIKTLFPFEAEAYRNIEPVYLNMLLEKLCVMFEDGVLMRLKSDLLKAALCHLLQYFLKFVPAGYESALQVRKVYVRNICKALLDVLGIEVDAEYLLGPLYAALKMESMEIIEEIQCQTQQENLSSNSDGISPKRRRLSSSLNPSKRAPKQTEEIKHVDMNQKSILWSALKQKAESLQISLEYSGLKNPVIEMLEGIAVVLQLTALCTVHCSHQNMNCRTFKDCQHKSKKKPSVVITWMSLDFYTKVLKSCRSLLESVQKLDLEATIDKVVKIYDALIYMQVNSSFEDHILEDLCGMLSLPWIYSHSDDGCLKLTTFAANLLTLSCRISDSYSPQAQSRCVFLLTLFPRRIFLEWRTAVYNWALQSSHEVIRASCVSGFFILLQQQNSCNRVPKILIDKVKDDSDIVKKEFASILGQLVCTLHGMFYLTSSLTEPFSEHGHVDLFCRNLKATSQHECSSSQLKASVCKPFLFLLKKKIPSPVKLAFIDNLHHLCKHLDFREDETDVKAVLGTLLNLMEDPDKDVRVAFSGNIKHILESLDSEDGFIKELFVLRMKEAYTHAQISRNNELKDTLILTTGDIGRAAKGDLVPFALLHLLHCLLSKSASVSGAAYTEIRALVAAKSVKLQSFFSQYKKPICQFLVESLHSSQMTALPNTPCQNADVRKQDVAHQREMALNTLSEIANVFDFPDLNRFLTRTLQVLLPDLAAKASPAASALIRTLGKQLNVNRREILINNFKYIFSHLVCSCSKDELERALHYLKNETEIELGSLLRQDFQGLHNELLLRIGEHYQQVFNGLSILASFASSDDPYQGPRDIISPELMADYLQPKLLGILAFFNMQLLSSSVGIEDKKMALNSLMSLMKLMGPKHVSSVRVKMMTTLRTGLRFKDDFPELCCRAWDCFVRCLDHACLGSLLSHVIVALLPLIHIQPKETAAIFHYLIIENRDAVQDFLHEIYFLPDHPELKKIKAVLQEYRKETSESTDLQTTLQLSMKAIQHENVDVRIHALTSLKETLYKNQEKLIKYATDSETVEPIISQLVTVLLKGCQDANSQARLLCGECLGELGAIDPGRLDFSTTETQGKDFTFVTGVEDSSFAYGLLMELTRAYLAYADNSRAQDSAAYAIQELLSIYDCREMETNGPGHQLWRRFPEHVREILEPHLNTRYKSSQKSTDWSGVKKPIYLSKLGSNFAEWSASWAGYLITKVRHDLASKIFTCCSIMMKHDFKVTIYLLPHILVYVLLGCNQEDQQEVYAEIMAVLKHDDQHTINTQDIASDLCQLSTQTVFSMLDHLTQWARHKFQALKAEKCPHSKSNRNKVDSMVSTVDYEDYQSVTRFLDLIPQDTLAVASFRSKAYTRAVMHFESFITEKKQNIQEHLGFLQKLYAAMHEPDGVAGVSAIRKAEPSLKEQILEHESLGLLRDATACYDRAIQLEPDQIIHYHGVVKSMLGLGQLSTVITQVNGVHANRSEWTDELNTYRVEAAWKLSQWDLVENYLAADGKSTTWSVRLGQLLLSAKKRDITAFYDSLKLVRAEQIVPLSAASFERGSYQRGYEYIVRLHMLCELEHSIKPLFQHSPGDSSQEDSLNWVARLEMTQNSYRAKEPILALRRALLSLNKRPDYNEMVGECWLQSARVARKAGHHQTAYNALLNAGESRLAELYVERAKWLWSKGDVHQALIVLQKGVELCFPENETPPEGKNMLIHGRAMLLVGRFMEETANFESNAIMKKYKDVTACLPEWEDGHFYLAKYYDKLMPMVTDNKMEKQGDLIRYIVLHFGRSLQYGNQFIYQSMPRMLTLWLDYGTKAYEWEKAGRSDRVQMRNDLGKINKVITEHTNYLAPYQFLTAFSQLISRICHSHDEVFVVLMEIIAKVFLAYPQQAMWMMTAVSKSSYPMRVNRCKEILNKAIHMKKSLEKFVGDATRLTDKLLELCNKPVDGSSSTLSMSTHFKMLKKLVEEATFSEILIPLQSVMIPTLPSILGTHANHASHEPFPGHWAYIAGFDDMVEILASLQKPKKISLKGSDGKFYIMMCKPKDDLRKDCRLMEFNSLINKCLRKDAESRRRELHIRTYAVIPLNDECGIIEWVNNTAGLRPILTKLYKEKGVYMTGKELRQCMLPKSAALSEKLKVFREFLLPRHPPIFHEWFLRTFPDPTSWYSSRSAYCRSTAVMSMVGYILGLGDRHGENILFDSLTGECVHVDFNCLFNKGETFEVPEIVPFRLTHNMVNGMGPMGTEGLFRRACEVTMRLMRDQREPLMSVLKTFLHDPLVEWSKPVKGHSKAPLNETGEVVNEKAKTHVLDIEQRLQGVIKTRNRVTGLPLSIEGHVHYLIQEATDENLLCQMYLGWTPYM
pIC50: −log10 of the molar value.

Lookup: Lab note: need pIC50 for CNc1cnc2[nH]ccc2c1-c1nc2c(c(C(C)(C)O)n1)OC[C@@H]1COC[C@@H](C)N21 on Serine/threonine-protein kinase ATR (Homo sapiens), anyone have it?
Found: 7.00 to 8.00

Lookup: GET /values?readout=pIC50&system=Serine/threonine-protein kinase ATR (Homo sapiens)&item= CNc1cnc2[nH]ccc2c1-c1nc2c(c(C(C)(C)S(C)(=O)=O)n1)OC[C@@H]1COC[C@@H](C)N21
Found: > 8.00

Continuing:
Lookup: Test system Serine/threonine-protein kinase ATR (Homo sapiens); read-out pIC50; what value for CCNc1cnc2[nH]ccc2c1-c1nc2c(c(C(C)(C)S(C)(=O)=O)n1)OC[C@@H]1COC[C@@H](C)N21 ?
Found: 7.00 to 8.00

Lookup: Reported pIC50 for Serine/threonine-protein kinase ATR (Homo sapiens), given CNc1nc2ccccc2n1-c1nc2c(c(C(C)(C)S(C)(=O)=O)n1)OC[C@@H]1COC[C@@H](C)N21 ?
Found: > 8.00
